- system.under.test: SERCA1a (Oryctolagus cuniculus, UniProt P04191)
- Sequence (P04191 other isoform, or with tags, fused parts or gaps): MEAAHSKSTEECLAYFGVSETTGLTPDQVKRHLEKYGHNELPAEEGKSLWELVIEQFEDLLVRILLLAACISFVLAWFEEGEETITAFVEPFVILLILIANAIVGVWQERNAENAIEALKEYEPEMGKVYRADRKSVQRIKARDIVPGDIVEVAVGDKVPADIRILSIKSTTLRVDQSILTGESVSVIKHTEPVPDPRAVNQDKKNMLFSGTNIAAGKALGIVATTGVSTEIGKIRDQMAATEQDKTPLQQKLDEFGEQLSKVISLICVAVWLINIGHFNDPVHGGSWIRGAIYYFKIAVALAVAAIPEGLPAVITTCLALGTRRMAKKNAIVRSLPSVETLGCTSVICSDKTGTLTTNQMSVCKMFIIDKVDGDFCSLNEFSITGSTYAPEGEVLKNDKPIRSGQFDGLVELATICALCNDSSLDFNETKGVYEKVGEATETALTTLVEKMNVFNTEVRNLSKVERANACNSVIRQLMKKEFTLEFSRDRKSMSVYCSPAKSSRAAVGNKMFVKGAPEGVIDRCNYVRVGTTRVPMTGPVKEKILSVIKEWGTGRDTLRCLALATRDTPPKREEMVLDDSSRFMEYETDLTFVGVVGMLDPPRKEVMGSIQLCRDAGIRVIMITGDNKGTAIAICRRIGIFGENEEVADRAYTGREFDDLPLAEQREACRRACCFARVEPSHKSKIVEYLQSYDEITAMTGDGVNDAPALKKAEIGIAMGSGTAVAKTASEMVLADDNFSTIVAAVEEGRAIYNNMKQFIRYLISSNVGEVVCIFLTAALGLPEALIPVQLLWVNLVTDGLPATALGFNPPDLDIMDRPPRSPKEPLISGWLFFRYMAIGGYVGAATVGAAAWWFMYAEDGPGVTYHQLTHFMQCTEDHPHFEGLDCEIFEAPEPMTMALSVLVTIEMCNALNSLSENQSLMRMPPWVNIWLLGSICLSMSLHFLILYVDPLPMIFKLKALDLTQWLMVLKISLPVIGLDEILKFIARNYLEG
- assay.protocol: Yeast whole-cell growth inhibition assay, K667::SERCA1a
- Format: cell-based, rabbit
- Set-up: containing the SERCA1a coding region from rabbit skeletal fast-twitch muscle; expressed in transfected cells; host or cells: Saccharomyces cerevisiae K667 and K667Δpdr5::HIS
- condition.notes: measured at 40 h
readout.name: IC50 (nM)
Reply with just the number (in nM).

Readout IC50 for C/C=C(/C)C(=O)O[C@H]1C(C)=C2[C@H]([C@@H]1OC(=O)CCCCCCC)[C@@](C)(OC(C)=O)C[C@H](OC(=O)CCC)[C@@]1(O)[C@H]2OC(=O)[C@@]1(C)O , test system SERCA1a (Oryctolagus cuniculus, UniProt P04191), was 335

---

- system.under.test: A623E PfATP6 (Plasmodium falciparum, UniProt Q08853, A623E)
- Sequence (Q08853 whole entry A623E): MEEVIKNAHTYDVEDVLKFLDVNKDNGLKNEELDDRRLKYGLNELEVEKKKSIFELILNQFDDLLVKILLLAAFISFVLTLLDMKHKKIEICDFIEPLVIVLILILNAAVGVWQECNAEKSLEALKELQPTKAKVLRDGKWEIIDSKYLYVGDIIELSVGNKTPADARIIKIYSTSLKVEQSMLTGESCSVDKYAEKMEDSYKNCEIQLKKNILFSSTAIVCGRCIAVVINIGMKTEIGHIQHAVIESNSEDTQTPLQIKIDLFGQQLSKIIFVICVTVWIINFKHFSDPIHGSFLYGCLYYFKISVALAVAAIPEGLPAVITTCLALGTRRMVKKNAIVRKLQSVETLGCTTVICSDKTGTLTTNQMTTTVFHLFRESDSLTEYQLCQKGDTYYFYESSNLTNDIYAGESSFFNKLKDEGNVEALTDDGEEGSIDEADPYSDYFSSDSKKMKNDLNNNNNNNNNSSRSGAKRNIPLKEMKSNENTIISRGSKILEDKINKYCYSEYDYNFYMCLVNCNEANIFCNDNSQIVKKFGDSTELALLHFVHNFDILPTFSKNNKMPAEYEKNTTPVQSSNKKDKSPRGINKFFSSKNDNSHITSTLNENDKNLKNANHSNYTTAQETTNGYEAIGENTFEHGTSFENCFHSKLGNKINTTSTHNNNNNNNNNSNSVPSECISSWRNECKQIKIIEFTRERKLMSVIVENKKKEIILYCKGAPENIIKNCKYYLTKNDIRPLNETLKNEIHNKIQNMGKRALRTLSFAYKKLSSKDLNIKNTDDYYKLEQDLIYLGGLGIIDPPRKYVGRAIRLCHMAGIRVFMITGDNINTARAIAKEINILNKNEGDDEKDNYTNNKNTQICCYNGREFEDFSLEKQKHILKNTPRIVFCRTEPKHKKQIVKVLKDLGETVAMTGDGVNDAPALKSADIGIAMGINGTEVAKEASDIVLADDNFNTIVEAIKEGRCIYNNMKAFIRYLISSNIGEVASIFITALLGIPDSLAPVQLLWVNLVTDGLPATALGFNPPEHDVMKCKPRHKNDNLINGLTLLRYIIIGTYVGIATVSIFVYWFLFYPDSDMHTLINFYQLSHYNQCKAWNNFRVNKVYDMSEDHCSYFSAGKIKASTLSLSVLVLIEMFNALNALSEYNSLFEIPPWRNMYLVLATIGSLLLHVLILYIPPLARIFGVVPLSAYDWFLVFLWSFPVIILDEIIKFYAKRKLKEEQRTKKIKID
- assay.protocol: Yeast whole-cell assay, PfATP6 A623E mutant
- condition.notes: read-out: IC50 (mean ± SD)
readout.name: IC50 (µM)
Could you give me the number in µM? Just the number is fine.

CC(=O)C1=C(O)[C@@H]2[C@H]3c4c[nH]c5cccc(c45)C[C@H]3C(C)(C)N2C1=O [CPA, cyclopiazonic acid] yielded IC50 of 5.86

---

- system.under.test: A623E/S769N PfATP6 (Plasmodium falciparum, UniProt Q08853, A623E/S769N)
- Sequence (Q08853 whole entry A623E/S769N): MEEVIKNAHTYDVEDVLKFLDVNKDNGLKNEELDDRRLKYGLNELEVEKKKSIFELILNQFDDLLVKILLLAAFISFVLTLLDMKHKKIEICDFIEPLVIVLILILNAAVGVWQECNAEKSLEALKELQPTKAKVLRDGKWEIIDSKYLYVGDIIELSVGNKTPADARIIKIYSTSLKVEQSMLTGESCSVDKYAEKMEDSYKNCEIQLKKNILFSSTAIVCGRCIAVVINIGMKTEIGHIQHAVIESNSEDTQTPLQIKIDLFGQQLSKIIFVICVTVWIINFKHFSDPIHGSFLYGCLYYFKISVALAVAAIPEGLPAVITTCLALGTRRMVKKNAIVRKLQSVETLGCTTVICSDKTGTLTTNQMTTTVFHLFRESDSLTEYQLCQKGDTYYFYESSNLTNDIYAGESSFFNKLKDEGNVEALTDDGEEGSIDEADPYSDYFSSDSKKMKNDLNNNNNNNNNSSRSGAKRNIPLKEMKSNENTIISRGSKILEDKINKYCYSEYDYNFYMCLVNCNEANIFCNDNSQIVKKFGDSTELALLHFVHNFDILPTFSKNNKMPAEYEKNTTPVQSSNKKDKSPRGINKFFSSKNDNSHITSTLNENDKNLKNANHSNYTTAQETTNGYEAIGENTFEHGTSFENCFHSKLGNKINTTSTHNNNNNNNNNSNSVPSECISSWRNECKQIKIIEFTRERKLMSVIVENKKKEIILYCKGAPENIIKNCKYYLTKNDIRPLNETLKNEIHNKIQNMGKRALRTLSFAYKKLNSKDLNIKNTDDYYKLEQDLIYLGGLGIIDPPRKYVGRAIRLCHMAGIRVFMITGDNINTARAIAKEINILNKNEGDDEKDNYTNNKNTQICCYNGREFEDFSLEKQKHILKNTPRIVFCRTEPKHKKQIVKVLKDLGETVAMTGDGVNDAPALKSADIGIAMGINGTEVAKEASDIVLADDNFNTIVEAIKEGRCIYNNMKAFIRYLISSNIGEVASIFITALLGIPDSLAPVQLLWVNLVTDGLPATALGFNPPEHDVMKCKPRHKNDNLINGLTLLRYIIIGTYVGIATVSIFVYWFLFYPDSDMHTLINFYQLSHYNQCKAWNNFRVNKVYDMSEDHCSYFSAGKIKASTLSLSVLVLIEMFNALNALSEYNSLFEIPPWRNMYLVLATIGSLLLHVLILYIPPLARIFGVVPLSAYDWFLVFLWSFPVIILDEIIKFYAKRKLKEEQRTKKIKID
- assay.protocol: Yeast whole-cell assay, PfATP6 A623E/S769N double mutant
- condition.notes: read-out: IC50 (mean ± SD)
readout.name: IC50 (µM)
Number in µM, nothing else.

Value of IC50 reported for the compound CC(=O)C1=C(O)[C@@H]2[C@H]3c4c[nH]c5cccc(c45)C[C@H]3C(C)(C)N2C1=O is 6.61

---

- system.under.test: PfATP6 (Plasmodium falciparum, UniProt Q08853)
- Sequence (Q08853 whole entry): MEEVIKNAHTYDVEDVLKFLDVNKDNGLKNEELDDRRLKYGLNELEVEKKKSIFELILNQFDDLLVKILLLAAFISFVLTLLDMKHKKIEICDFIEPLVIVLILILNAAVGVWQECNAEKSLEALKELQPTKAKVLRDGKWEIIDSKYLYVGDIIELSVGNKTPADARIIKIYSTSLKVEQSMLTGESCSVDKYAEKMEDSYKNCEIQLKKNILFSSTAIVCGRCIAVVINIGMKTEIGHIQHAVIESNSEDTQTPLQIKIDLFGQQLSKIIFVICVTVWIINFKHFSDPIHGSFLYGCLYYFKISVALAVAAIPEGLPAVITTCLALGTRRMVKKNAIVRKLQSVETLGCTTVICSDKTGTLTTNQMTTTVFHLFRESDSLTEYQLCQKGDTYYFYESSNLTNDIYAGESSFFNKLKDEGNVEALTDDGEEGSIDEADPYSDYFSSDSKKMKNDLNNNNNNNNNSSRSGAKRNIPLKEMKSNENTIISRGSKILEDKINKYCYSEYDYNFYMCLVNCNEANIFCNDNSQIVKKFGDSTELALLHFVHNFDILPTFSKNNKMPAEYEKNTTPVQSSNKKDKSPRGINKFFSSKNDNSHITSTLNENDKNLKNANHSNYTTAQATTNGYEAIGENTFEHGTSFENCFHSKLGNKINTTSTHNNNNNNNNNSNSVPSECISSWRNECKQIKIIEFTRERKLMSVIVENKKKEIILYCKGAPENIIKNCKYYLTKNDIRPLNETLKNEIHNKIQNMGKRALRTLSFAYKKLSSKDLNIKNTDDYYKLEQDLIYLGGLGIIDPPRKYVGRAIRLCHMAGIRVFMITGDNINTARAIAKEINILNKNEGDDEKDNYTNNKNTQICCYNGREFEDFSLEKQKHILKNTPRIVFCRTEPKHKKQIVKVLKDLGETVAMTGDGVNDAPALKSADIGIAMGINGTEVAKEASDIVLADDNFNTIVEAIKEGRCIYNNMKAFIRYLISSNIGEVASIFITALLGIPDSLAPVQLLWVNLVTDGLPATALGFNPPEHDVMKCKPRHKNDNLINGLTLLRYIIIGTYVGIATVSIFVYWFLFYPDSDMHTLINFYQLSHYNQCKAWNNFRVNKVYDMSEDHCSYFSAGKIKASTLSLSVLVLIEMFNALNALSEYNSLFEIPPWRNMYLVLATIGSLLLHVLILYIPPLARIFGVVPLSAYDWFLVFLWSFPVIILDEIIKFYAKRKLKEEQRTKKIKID
- assay.protocol: cell-based
- Assay type: cell-based
- Set-up: pUGpd containing the yeast-optimized coding region of PfATP6 from Plasmodium falciparum; expressed in transfected cells; host or cells: Saccharomyces cerevisiae K667 and K667Δpdr5::HIS
- Description: The screening assay used here was developed from the protocol used by Pulcini et al. ([13]). A single colony of the yeast strain to be screened was picked and grown in 5 mL of selective medium until stationary phase was reached. […] The optimal calcium concentration was periodically monitored and, if necessary, adjusted using a calcium concentration range of 10 to 30 mM. […] The yeast growth was estimated from the absorbance at 620 nm in a Tecan plate reader. […]
Quick list: pIC50 per entry.
Worth noting: pIC50 values are minus log10 of concentrations stated in mol/L.

GET /value?item= CO[C@H]1O[C@@H]2O[C@@]3(C)CC[C@H]4[C@H](C)CC[C@@H]([C@H]1C)[C@@]24OO3 [Artemether] &field=pIC50 returns 5.47

---

- system.under.test: S769N PfATP6 (Plasmodium falciparum, UniProt Q08853, S769N)
- assay.protocol: Yeast whole-cell assay, PfATP6 S769N mutant
- condition.notes: read-out: IC50 (mean ± SD)
readout.name: IC50
Field: value (include unit after the number)

Input CC(=O)C1=C(O)[C@@H]2[C@H]3c4c[nH]c5cccc(c45)C[C@H]3C(C)(C)N2C1=O . Output IC50: 6.49 µM

---

- system.under.test: UniProt P04191
- assay.protocol: Yeast whole-cell growth inhibition assay, K667Δpdr5[SERCA1a]
- Assay type: cell-based, rabbit
- Parameters: containing the SERCA1a coding region from rabbit skeletal fast-twitch muscle; expressed in transfected cells; host or cells: Saccharomyces cerevisiae K667 and K667Δpdr5::HIS
- condition.notes: K667DPDR5::SERCA1a (wild-type E255), measured at 40 h
readout.name: IC50 (nM)
Express the result in nM but write the number alone.

// sample C/C=C(/C)C(=O)O[C@H]1C(C)=C2[C@H]([C@@H]1OC(=O)CCCCCCC)[C@@](C)(OC(C)=O)C[C@H](OC(=O)CCC)[C@@]1(O)[C@H]2OC(=O)[C@@]1(C)O [thapsigargin] , its IC50 was 142

---

- system.under.test: PfATP6 (Plasmodium falciparum)
- assay.protocol: Yeast whole-cell growth inhibition (functional rescue) assay, K667[PfATP6]
- Assay type: cell-based
- Parameters: pUGpd containing the yeast-optimized coding region of PfATP6 from Plasmodium falciparum; expressed in transfected cells; host or cells: Saccharomyces cerevisiae K667 and K667Δpdr5::HIS
# reported pIC50; entries follow
In textbook form, pIC50 equals minus log to base ten of the concentration in mol/L.

> print(dat)
                                   molecule  readout.name  reading
1  CC(=O)C1=C(O)[C@@H]2[C@H]3c4c[nH]c5cccc(c45)C[C@H]3C(C)(C)N2C1=O [CPA, cyclopiazonic acid]         pIC50     4.94
2  C[C@H]1[C@H](N2CCS(=O)(=O)CC2)O[C@@H]2O[C@@]3(C)CC[C@H]4[C@H](C)CC[C@@H]1[C@@]24OO3 [Artemisone]         pIC50     5.44
3  C[C@H]1[C@@H](O)O[C@@H]2O[C@@]3(C)CC[C@H]4[C@H](C)CC[C@@H]1[C@@]24OO3 [DHA, dihydroartemisinin]         pIC50     4.62
4  C[C@@H]1CC[C@H]2[C@@H](C)C(=O)O[C@@H]3O[C@@]4(C)CC[C@@H]1[C@]32OO4 [Artemisinin]         pIC50     4.97
5  CO[C@H]1O[C@@H]2O[C@@]3(C)CC[C@H]4[C@H](C)CC[C@@H]([C@H]1C)[C@@]24OO3 [Artemether]         pIC50     4.80

Now consider the entry below.
For C[C@H]1[C@H](OC(=O)CCC(=O)O)O[C@@H]2O[C@@]3(C)CC[C@H]4[C@H](C)CC[C@@H]1[C@@]24OO3 [Artesunate] the molecule record lists pIC50 as 4.83

---

- system.under.test: E255LSERCA1a (Oryctolagus cuniculus, UniProt P04191, E255L)
- assay.protocol: Yeast whole-cell growth inhibition assay, K667Δpdr5[SERCA1a]255L
- Method: The E255L mutation was introduced into SERCA1a using the following primers: forward, 5′-[…]-3′; reverse, 5′-[…]-3′. […] The screening assay used here was developed from the protocol used by Pulcini et al. ([13]). […] The optimal calcium concentration was periodically monitored and, if necessary, adjusted using a calcium concentration range of 10 to 30 mM. […] The yeast growth was estimated from the absorbance at 620 nm in a Tecan plate reader. […]
readout.name: IC50 (nM)
Hi! Could you send only the number? It should be in nM, unit omitted.

Considering C/C=C(/C)C(=O)O[C@H]1C(C)=C2[C@H]([C@@H]1OC(=O)CCCCCCC)[C@@](C)(OC(C)=O)C[C@H](OC(=O)CCC)[C@@]1(O)[C@H]2OC(=O)[C@@]1(C)O [thapsigargin] , its IC50 with E255LSERCA1a (Oryctolagus cuniculus, UniProt P04191, E255L) was recorded as 794

---

- system.under.test: PfATP6 (Plasmodium falciparum)
- assay.protocol: cell-based
- Format: cell-based
- Set-up: pUGpd containing the yeast-optimized coding region of PfATP6 from Plasmodium falciparum; expressed in transfected cells; host or cells: Saccharomyces cerevisiae K667 and K667Δpdr5::HIS
readout.name: IC50

// below: answered molecules
> print(dat)
                                   molecule               system.under.test  readout.name  reading
1  C[C@@H]1CC[C@H]2[C@@H](C)C(=O)O[C@@H]3O[C@@]4(C)CC[C@@H]1[C@]32OO4 [Artemisinin]  PfATP6 (Plasmodium falciparum)          IC50  1800 nM
2  C[C@H]1[C@@H](O)O[C@@H]2O[C@@]3(C)CC[C@H]4[C@H](C)CC[C@@H]1[C@@]24OO3 [DHA, dihydroartemisinin]  PfATP6 (Plasmodium falciparum)          IC50  2100 nM
3  C[C@H]1[C@H](OC(=O)CCC(=O)O)O[C@@H]2O[C@@]3(C)CC[C@H]4[C@H](C)CC[C@@H]1[C@@]24OO3 [Artesunate]  PfATP6 (Plasmodium falciparum)          IC50  3700 nM

Okay, now this molecule:
The recorded IC50 for C[C@H]1[C@H](N2CCS(=O)(=O)CC2)O[C@@H]2O[C@@]3(C)CC[C@H]4[C@H](C)CC[C@@H]1[C@@]24OO3 [Artemisone] is 900 nM
